Cited source for all entries: patent US6762170B1

target: Adenosine 2a receptor (Homo sapiens, UniProt P29274); construct: expressed in transfected cells; host or cells: Chinese hamster ovary (CHO) cells, co-transfected with a CRE-SPAP reporter; assay: Agonist activity against adenosine 2a receptor subtype (CHO cells, cAMP response element/SPAP reporter); format: cell-based; details: EC50 ratio to NECA; transfected CHO cells, basal cAMP reflected by SPAP
Sequence (P29274 whole entry): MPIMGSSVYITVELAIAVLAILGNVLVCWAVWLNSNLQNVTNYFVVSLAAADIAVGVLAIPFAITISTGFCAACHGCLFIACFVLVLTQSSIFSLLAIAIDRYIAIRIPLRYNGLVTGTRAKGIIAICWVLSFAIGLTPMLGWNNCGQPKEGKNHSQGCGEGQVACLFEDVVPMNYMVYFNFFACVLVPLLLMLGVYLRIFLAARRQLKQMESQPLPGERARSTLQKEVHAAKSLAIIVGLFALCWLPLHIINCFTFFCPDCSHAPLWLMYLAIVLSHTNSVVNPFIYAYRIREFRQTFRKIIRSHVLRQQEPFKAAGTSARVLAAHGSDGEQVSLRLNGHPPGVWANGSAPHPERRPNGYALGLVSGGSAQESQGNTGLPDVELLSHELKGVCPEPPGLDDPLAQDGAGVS
endpointLabel: A2a (EC50 values as a ratio of that of NECA)

Note to self: A2a (EC50 values as a ratio of that of NECA) recorded for CCc1cc(C2OC(n3cnc4c(NCc5cccc(I)c5)nc(NCCc5cn(C)cn5)nc43)C(O)C2O)on1.O=CO.O=CO (stereo not shown) [Example 20] was 2.04

Note to self: A2a (EC50 values as a ratio of that of NECA) recorded for CCc1cc(C2OC(n3cnc4c(NC(CO)C(C)C)nc(NCCN5CCCCC5)nc43)C(O)C2O)on1 (stereo not shown) [Example 70] was 27.39

Note to self: A2a (EC50 values as a ratio of that of NECA) recorded for CCc1cc([C@H]2O[C@@H](n3cnc4c(NC(CC)CC)nc(NCCN5CCCCC5)nc43)[C@H](O)[C@@H]2O)on1.O=CO.O=CO [Example 6] was 0.49

Note to self: A2a (EC50 values as a ratio of that of NECA) recorded for CCc1cc(C2OC(n3cnc4c(NC(CO)Cc5ccccc5)nc(NCCN)nc43)C(O)C2O)on1 (stereo not shown) [Example 64] was 16.03

* * *

biological target: Adenosine 2a receptor (Homo sapiens); construct: expressed in transfected cells; host or cells: Chinese hamster ovary (CHO) cells, co-transfected with a CRE-SPAP reporter; experiment: Agonist activity against adenosine 2a receptor subtype (CHO cells, cAMP response element/SPAP reporter); type: cell-based; details: EC50 ratio to NECA; transfected CHO cells, basal cAMP reflected by SPAP
Hi! Could you tag entries with A2a (EC50 values as a ratio of that of NECA) below 4 as satisfied, and those at or above as not satisfied? Much appreciated.

Dear reviewer, please state whether CCc1cc(C2OC(n3cnc4c(NC5CCS(=O)(=O)CC5)nc(NC5CCC(N)CC5)nc43)C(O)C2O)on1 (stereo not drawn) [Example 32] has A2a (EC50 values as a ratio of that of NECA) strictly beneath 4.
satisfied

Dear reviewer, please state whether CCc1cc(C2OC(n3cnc4c(NCCS(=O)(=O)NC)nc(NCCN5CCCCC5)nc43)C(O)C2O)on1 (stereo not drawn) [Example 11] has A2a (EC50 values as a ratio of that of NECA) strictly beneath 4.
satisfied

Dear reviewer, please state whether CCc1cc(C2OC(n3cnc4c(NCCC5CCCCC5)nc(NCCc5cn(C)cn5)nc43)C(O)C2O)on1.O=CO.O=CO (stereo not drawn) [Example 21] has A2a (EC50 values as a ratio of that of NECA) strictly beneath 4.
satisfied

Dear reviewer, please state whether CCc1cc(C2OC(n3cnc4c(NC(CC)CC)nc(NC5CCNC5)nc43)C(O)C2O)on1 (stereo not drawn) [Example 36] has A2a (EC50 values as a ratio of that of NECA) strictly beneath 4.
not satisfied

Dear reviewer, please state whether CCc1cc(C2OC(n3cnc4c(N)nc(NCCc5ccc(S(N)(=O)=O)cc5)nc43)C(O)C2O)on1 (stereo not drawn) [Example 18] has A2a (EC50 values as a ratio of that of NECA) strictly beneath 4.
satisfied

Dear reviewer, please state whether CCc1cc(C2OC(n3cnc4c(NC(CO)C(C)C)nc(NCCNc5ccccn5)nc43)C(O)C2O)on1 (stereo not drawn) [Example 71] has A2a (EC50 values as a ratio of that of NECA) strictly beneath 4.
not satisfied
